Listed below: mass density values for each entry.
# condition notes: 298.15 K; 101.33 kPa; Liquid
Respond with the bare value in kg/m3.

Recorded results for 3 compounds are shown here.
• C1COCCO1 = 1027.9
• c1ccccc1 = 873.5
• C1CCCCC1 = 773.7

Ask | Specify measured mass density for C1COCO1 .
Reply | 1058.8

Ask | Provide mass density value for the following compound: C1CCCC1
Reply | 739.7

###

In this section, each of the molecules is paired with its reported speed of sound.
# condition notes: 313.15 K; 101.33 kPa; Liquid; Sing-around technique in a fixed-path interferometer
State just the number; it will be interpreted in m/s.

Here are 4 molecules together with their reported answers.
* C1CCCCC1 [cyclohexane] | 1181.1
* C1CCCC1 [cyclopentane] | 1129.9
* C1COCCO1 [1,4-dioxane] | 1278.8
* C1COCO1 [1,3-dioxolane] | 1271.6

Turning to the following molecule.
Ask | For the molecule c1ccccc1 [benzene] , give its measured speed of sound value.
Reply | 1229.5

Each recorded value in this set is attributed to the NIST ThermoML archive (doi:10.1007/s10765-006-0063-0).
